- measurement-protocol: qHTS assay for small molecule disruptors of the mitochondrial membrane potential - 5 hr assay (AID 651755); further: nearly all actives have a fitted effect of over 40% in size
- experimental-setup: JC-1-type ratio dye; series mostly up to 92.2 µM
Records with an inconclusive call do not appear. Active and inactive are the calls of the source. The call rests on the fitted dose curve.
Respond only with the outcome that fits, drawn from active, inactive

Please review the entries below; each comes with its answer.
INSERT INTO results (compound, label_class) VALUES
  ('[Cd+2].[Cl-].[Cl-]', 'inactive'),
  ('Clc1ccc(C(c2ccc(Cl)cc2)C(Cl)Cl)cc1', 'active');

Query :: Check the results log: what was the call for O=C(O)C1C(C(=O)O)C2(Cl)C(Cl)=C(Cl)C1(Cl)C2(Cl)Cl (stereo not drawn) ?
Result :: inactive

Query :: Recorded call for `C(=NC1CCCCC1)=NC1CCCCC1` ?
Result :: inactive

Query :: For `CCCCCCCCn1sccc1=O` , which call appears in the assay record?
Result :: inactive

Query :: For this compound, state the assay outcome: `O=C(CCl)c1ccccc1`
Result :: inactive

Query :: Returns: the outcome recorded for `O=[N+]([O-])C(Br)Br` in this assay.
Result :: inactive

Query :: Dear colleague, could you share the recorded outcome for `c1ccc2cc3c(cc2c1)-c1cccc2cccc-3c12` when you have a moment?
Result :: active

---

- measurement-protocol: Cell Viability - LYMP2-011 (AID 969);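 further: cells exposed to compound for 24 hours; nearly all actives have a fitted effect of over 60% in size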
- experimental-setup: LYMP2-011 lymphoblastoid cells viability; series mostly up to 92.2 µM
Inconclusive results are not listed. Calls of active or inactive are those of the source. Calls come from the whole dose curve; as a rule, active = well fitted cell-killing curve with a large enough effect; inconclusive = small, poorly fitted or top-dose-only effect; inactive = flat fitted curve, though single readings scatter.
Return exactly one item of TRUE for active, FALSE for inactive

INSERT INTO assay_data (compound, label_class) VALUES
  ('Clc1ccc(C(c2ccc(Cl)cc2)C(Cl)Cl)cc1', 'FALSE');

Query :: Could you please tell me the result logged for `CCCCCCCCn1sccc1=O` in this assay?
Result :: TRUE

Query :: Write down the call the test reported for this compound. Item: `Nc1ccccc1C(=O)OCCc1ccccc1`
Result :: FALSE

Query :: Outcome logged for `FC(F)(F)c1ccc(Cl)cc1` in this assay:
Result :: FALSE

Query :: Could you kindly confirm the outcome this assay logged for O=C1C2(Cl)C3(Cl)C4(Cl)C(Cl)(Cl)C5(Cl)C3(Cl)C1(Cl)C5(Cl)C24Cl (configuration not stated) ?
Result :: TRUE

Query :: What call does the record list for `N#CC(Cl)Cl` ?
Result :: TRUE

Query :: Called result for `O=C(CCl)c1ccccc1`
Result :: TRUE

Query :: Give the logged outcome of this assay for the following compound: `O=Nc1ccc(Nc2ccccc2)cc1`
Result :: TRUE

Query :: Hello, I am checking results. What call was entered for CC(C)CC(C)Nc1ccc(Nc2ccccc2)cc1 (configuration not stated) ?
Result :: TRUE

Query :: Name the outcome recorded for O=C(O)C1C(C(=O)O)C2(Cl)C(Cl)=C(Cl)C1(Cl)C2(Cl)Cl (configuration not stated) in the assay.
Result :: FALSE

Query :: Please share the test call associated with `CN(C)c1ccc(N=O)cc1` .
Result :: TRUE

Query :: Per the records of this test, what outcome belongs to `[CH3][Hg][Cl]` ?
Result :: TRUE

---

- measurement-protocol: Cell Viability - LYMP1-002 - Assay at 16 hr (AID 948)
- experimental-setup: LYMP1-002 lymphoblastoid cell viability; series mostly up to 92.2 µM
Results filed as inconclusive are left out. Activity calls are given as the source filed them. Calls come from the whole dose curve; as a rule, active = well fitted cell-killing curve with a large enough effect; inconclusive = small, poorly fitted or top-dose-only effect; inactive = flat fitted curve, though single readings scatter.
Hi there, use one of these labels in your reply, thanks! T for active, F for inactive

INSERT INTO assay_data (molecule, label_class) VALUES
  ('C#CCO', 'F');

Query :: Field: outcome | Entry: `FC(F)(F)c1ccc(Cl)cc1`
Result :: F

Query :: What outcome does the record of this test show for `COP(=O)(OC)O/C(=C\Cl)c1cc(Cl)c(Cl)cc1Cl` ?
Result :: F

Query :: Hi, do you know how `c1ccc2cc3c(cc2c1)-c1cccc2cccc-3c12` came out in this test?
Result :: F

Query :: Hi, sorry to bother you, what did the test record for O=C(O)C1C(C(=O)O)C2(Cl)C(Cl)=C(Cl)C1(Cl)C2(Cl)Cl (stereo not given) ?
Result :: F

Query :: Query: recorded result category for `O=[N+]([O-])c1cc(C(F)(F)F)cc([N+](=O)[O-])c1Cl` in this test
Result :: F

Query :: Recorded test outcome, item `C(=NC1CCCCC1)=NC1CCCCC1`
Result :: F

Query :: Which outcome was assigned to O=C1C2(Cl)C3(Cl)C4(Cl)C(Cl)(Cl)C5(Cl)C3(Cl)C1(Cl)C5(Cl)C24Cl (stereo not given) in this test?
Result :: T

Query :: Status in this test for `N#CC(Cl)Cl` ?
Result :: F

Query :: Tell me the assay call for `Oc1c(Br)c(Br)c(Br)c(Br)c1Br` please.
Result :: F

Query :: So what was the verdict on `O=Nc1ccc(Nc2ccccc2)cc1` in this test?
Result :: T

Query :: Answer briefly: the call reported for `CCCCCCCCn1sccc1=O` in this assay.
Result :: T

Query :: Can you look up the reported call for `CN(C)c1ccc(N=O)cc1` for me?
Result :: T

Query :: What classification did `N#CSCSC#N` end up with in this test?
Result :: T

Query :: Please state the recorded outcome for this molecule: `C[C@@H]1CC[C@@]2(OC1)O[C@H]1[C@@H](O)[C@H]3[C@@H]4CC[C@H]5C[C@@H](O[C@@H]6O[C@H](CO)[C@H](O[C@@H]7O[C@H](CO)[C@@H](O)[C@H](O[C@@H]8OC[C@@H](O)[C@H](O)[C@H]8O)[C@H]7O[C@@H]7O[C@H](CO)[C@@H](O)[C@H](O[C@@H]8O[C@H](CO)[C@@H](O)[C@H](O)[C@H]8O)[C@H]7O)[C@H](O)[C@H]6O)[C@H](O)C[C@]5(C)[C@H]4CC[C@]3(C)[C@H]1[C@@H]2C`
Result :: T

---

- measurement-protocol: Cell Viability - LYMP2-021 (AID 974);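 further: compound exposure lasts 24 hours at 37 °C; nearly all actives have a fitted effect of over 55% in size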
- experimental-setup: LYMP2-021 lymphoblastoid cells viability; series mostly up to 92.2 µM
Records with an inconclusive call do not appear. Active and inactive are the calls of the source. Calls come from the whole dose curve; as a rule, active = well fitted cell-killing curve with a large enough effect; inconclusive = small, poorly fitted or top-dose-only effect; inactive = flat fitted curve, though single readings scatter.
A correct response names exactly one class from 1 (active), -1 (inactive)

Some entries whose results are on file:
INSERT INTO measurements (compound, label_class) VALUES
  ('Oc1c(Br)c(Br)c(Br)c(Br)c1Br', -1),
  ('CCCCCCCCn1sccc1=O', 1),
  ('c1cc(OCC2CO2)cc(OCC2CO2)c1 (configuration not stated)', 1),
  ('CC/C(=C(\c1ccccc1)c1ccc(OCCN(C)C)cc1)c1ccc(O)cc1', 1),
  ('FC(F)(F)c1ccc(Cl)cc1', -1),
  ('O=C(CCl)c1ccccc1', 1),
  ('ClC1=C(Cl)C(Cl)(Cl)C(Cl)=C1Cl', 1),
  ('C#CCO', -1);

Next:
Query :: Kindly provide the recorded test outcome for the following compound: O=C(O)C1C(C(=O)O)C2(Cl)C(Cl)=C(Cl)C1(Cl)C2(Cl)Cl (configuration not stated)
Result :: -1

---

Please provide measured max response for the entries that follow.
- system-name: Peroxisome proliferator-activated receptor alpha (Homo sapiens) (UniProt Q07869)
- Sequence (Q07869 whole entry, looked up): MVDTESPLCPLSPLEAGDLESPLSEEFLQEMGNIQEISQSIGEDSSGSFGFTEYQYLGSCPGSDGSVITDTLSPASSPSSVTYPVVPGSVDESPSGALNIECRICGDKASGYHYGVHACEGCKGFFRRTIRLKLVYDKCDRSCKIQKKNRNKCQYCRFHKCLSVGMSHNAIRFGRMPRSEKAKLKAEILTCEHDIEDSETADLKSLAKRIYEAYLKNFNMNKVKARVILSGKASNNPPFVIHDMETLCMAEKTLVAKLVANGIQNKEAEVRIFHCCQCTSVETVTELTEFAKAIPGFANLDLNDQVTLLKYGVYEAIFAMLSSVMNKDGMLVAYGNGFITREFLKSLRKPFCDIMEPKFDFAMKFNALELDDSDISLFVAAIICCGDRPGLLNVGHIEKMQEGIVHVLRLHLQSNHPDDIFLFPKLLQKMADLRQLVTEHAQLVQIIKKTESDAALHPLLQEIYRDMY
- measurement-protocol: qHTS assay for small molecule agonists of the peroxisome proliferator-activated receptor alpha (PPARalpha) signaling pathway (AID 651778); further: % of control where 0% means no effect
- experimental-setup: PathHunter PPARalpha complementation, chemiluminescence, 6 h; stronger effect = higher value
One number for each entry, in %.

Some solved cases for reference:
INSERT INTO results (compound, system_name, test_result) VALUES
  ('O=C(O)[C@@H]1[C@H](C(=O)O)[C@@]2(Cl)C(Cl)=C(Cl)[C@]1(Cl)C2(Cl)Cl', 'Peroxisome proliferator-activated receptor alpha (Homo sapiens) (UniProt Q07869)', 0.99),
  ('Oc1c(Br)c(Br)c(Br)c(Br)c1Br', 'Peroxisome proliferator-activated receptor alpha (Homo sapiens) (UniProt Q07869)', 10),
  ('CCCCNC(=O)OCC#CI', 'Peroxisome proliferator-activated receptor alpha (Homo sapiens) (UniProt Q07869)', -2.4),
  ('CC(C)C1(C)N=C(c2nc3ccccc3cc2C(=O)O)NC1=O (stereo unspecified)', 'Peroxisome proliferator-activated receptor alpha (Homo sapiens) (UniProt Q07869)', 0.197);

State recorded max response for all listed compounds.
1. Clc1ccc([C@@]2(Cn3cncn3)C[C@H](Br)CO2)c(Cl)c1
2. CC(C)=CC1[C@H](C(=O)OCc2cccc(Oc3ccccc3)c2)C1(C)C (stereo partly specified)

Result ::
[0.534, -1.72]

---

- system-name: 3',5'-cyclic-AMP phosphodiesterase 4B (Homo sapiens)
- measurement-protocol: qHTS Assay for Inhibitors of PDE-IV (AID 607); further: % of control where 0% means no effect
- experimental-setup: HEK293 ACTOne CNG channel cells, membrane potential fluorescence; series mostly up to 22.9 µM
Results filed as inconclusive are left out. Calls of active or inactive are those of the source. Calls come from the whole dose curve; as a rule, active = well fitted activation curve with a large enough effect in the main read-out, with a control signal flat (not every such curve was filed as active); inconclusive = small, poorly fitted or top-dose-only effect, or effect the other way, or a change in a side signal; inactive = flat fitted curve, though single readings scatter.
metric: outcome

Below are worked cases with known answers.
INSERT INTO assay_data (compound, system_name, test_result) VALUES
  ('O=C(O)[C@@H]1C[C@H]1[C@@H](NP(=O)(c1ccccc1)c1ccccc1)c1ccccc1', '3'',5''-cyclic-AMP phosphodiesterase 4B (Homo sapiens)', 'inactive'),
  ('C[C@H]1CC[C@@H]2[C@@H](C)C(=O)O[C@H]3O[C@@]4(C)CC[C@@H]1[C@]32OO4', '3'',5''-cyclic-AMP phosphodiesterase 4B (Homo sapiens)', 'inactive'),
  ('COC(=O)[C@@]1(Cc2ccccc2)[C@H]2c3cc(C(=O)N(C)C)[nH]c3C[C@H]2CN1C(=O)c1ccccc1', '3'',5''-cyclic-AMP phosphodiesterase 4B (Homo sapiens)', 'inactive'),
  ('COC(=O)C1(C)C=C2C(=C(C)C(=O)C2C)CN1 (stereo not drawn)', '3'',5''-cyclic-AMP phosphodiesterase 4B (Homo sapiens)', 'inactive'),
  ('C=C(C)[C@@H]1CN[C@H](C(=O)O)[C@H]1CC(=O)O', '3'',5''-cyclic-AMP phosphodiesterase 4B (Homo sapiens)', 'inactive'),
  ('COC[C@@H]1OC(=O)c2coc3c2[C@]1(C)C1=C(C3=O)[C@H]2CCC(=O)[C@]2(C)C[C@@H]1OC(C)=O', '3'',5''-cyclic-AMP phosphodiesterase 4B (Homo sapiens)', 'inactive'),
  ('CC[C@H](CO)NC(=O)[C@H]1C=C2c3cccc4[nH]cc(c34)C[C@H]2N(C)C1', '3'',5''-cyclic-AMP phosphodiesterase 4B (Homo sapiens)', 'inactive');

Query :: # query: outcome of entry `COC(=O)[C@@H]1C[C@H]1[C@@H](NP(=O)(c1ccccc1)c1ccccc1)c1ccccc1`
Result :: inactive
